tested on: IL-6; experiment: Atopic dermatitis efficacy test using macrophages (RAW 264.7): IL-6 released after LPS, ELISA; format: cell-based, mouse; parameters: key: •: have statistical significance, determining as effective, compared with the positive control; conditions: Table 5; 1 μg/mL for 24 hours, then LPS 0.1 μg/mL 24 hours; vs positive control
Measured quantity: RAW 264.7 (mouse) IL-6

Some solved entries appear below for comparison.
Substance: Z15mer-1: ZAG3-derived oligopeptide, SEQ ID NO. 23: EDWKQDSQLQKARED (ZAG protein-derived peptide)
Data value: •
//
Substance: Z15mer-3: ZAG3-derived oligopeptide, SEQ ID NO. 25: KAREDIFMETLKDIV (ZAG protein-derived peptide)
Data value: •
//
Substance: Z20mer-3: ZAG3-derived oligopeptide, SEQ ID NO. 22: KAREDIFMETLKDIVEYYND (ZAG protein-derived peptide)
Data value: •
//
Substance: Z15mer-4: ZAG3-derived oligopeptide, SEQ ID NO. 26: IFMETLKDIVEYYND (ZAG protein-derived peptide)
Data value: •

We now examine a further substance.
### Prompt Input Z15mer-2: ZAG3-derived oligopeptide, SEQ ID NO. 24: DSQLQKAREDIFMET (ZAG protein-derived peptide) , output reported RAW 264.7 (mouse) IL-6.
### Response •
